System: HCT 116 (colon) cells
Experiment: Anti-cancer screen, growth inhibition (MTT)
Type: cell-based
Settings: Homo sapiens, HCT-116 cells, 48 hours of incubation
ASSAY_READOUT: GI50 (µM)

Some compounds with known GI50 results, for comparison:
given_smiles=O=C(/C=C/c1ccc(/C=C(/C(=O)NC2CC2)c2ccccc2Cl)cc1)NCCCCCC(=O)NO observed_value=5
given_smiles=O=C(CCCCCCC(=O)Nc1ccc(/C=C(/C(=O)NC2CC2)c2ccc(F)cc2)cc1)NO observed_value=5.6
given_smiles=Nc1ccccc1NC(=O)c1ccc(/C=C(/C(=O)NC2CC2)c2cccc(F)c2)cc1 observed_value=0.3
given_smiles=O=C(/C=C/c1ccc(/C=C(/C(=O)Nc2ccccc2)c2cccc(OCC3CC3)c2)cc1)NO observed_value=5.2
given_smiles=NC(=O)/C(=C/c1ccc(/C=C/C(=O)NO)cc1)c1ccc(F)cc1 observed_value=6

1 = Nc1ccccc1NC(=O)c1ccc(/C=C(/C(=O)NC2CC2)c2cc(F)ccc2F)cc1
2 = CC(C)NC(=O)/C(=C/c1ccc(C(=O)Nc2ccccc2N)cc1)c1ccc(F)cc1
3 = COc1cccc(/C(=C\c2ccc(/C=C/C(=O)Nc3ccccc3N)cc2)C(=O)NC2CC2)c1
**Query** Please put the entries in order of rising GI50. API: response body holds the labels in the requested order.
**Result** 2, 1, 3

The measured values listed here are drawn from patent US8450525B2.
